src = the supplement of paper PMC10981050

Tested on: MOLM14;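 further: after 48 h exposure read by CellTiter-Glo luminescence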
experiment-description: cell viability relative to vehicle control; higher = less cytotoxic
condition-details: 10 µM; SRSF2 genotype: SRSF2 wt/wt
Counter-ions that a name gives are not always drawn.
Attribute: cell viability
Unit % implied. Number only.

molecule="CCOC(=O)[C@H](CCc1ccccc1)N[C@@H](C)C(=O)N(CC(=O)O)C1Cc2ccccc2C1 [Delapril Hydrochloride]" unit_info=% result=90.7
molecule="CCCCCCCCOc1ccccc1C(=O)Nc1ccc(C(=O)OCC[N+](C)(CC)CC)cc1 [Otilonium Bromide]" unit_info=% result=89

Pending molecule:
Suppose we examine the molecule NC(=O)OCC(COC(N)=O)c1ccccc1 [Felbamate] ; what cell viability value has been reported?
89.4
